target: soluble human TNF-alpha (human, UniProt P01375 77-233); experiment: cell-based or functional assay
Sequence (P01375 77-233 limits assumed): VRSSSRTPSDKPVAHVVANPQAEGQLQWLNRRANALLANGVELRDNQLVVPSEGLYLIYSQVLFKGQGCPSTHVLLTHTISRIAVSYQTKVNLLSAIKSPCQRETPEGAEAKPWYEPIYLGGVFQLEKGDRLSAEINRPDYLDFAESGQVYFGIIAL
Label 1 when Inhibition of human TNF-induced L929 cell cytotoxicity EC50 < 0.1 nM; otherwise 0.

>>> classification("Q65E12 (VHH, not shown: small tags and cut ends, Family 2; purified from E. coli) VHH: EVQLVESGGGLVQPGGSLRLSCSASGFDFSIHWMYWVRQAPGKELEWVAEINTNGLITLYADSVKGRFTASRDNAKNALFLQMNDLKFEDTAVYYCAKSRNGAAGGQGTQVTVSS")
0
>>> classification("Q65D3 (VHH, not shown: small tags and cut ends, Family 1; purified from E. coli) VHH: EVQLVESGGGLVQPGGSLRLSCVASGFDFSSHWMYWVRQAPGKGLEWVSEINTNGLITKYADSTKGRFTVSRDNAANMLNLEMTSLEPEDTALYYCARNERGLNKGQGTQVTVSS")
0
>>> classification("Q65B1 (VHH, not shown: small tags and cut ends, Family 1; purified from E. coli; parent of the ID series) VHH: EVQLVESGGGLVQPGGSLKLSCAASGFDFSSHWMYWVRQAPGKELEWLSEINTNGLITKYGDSVKGRFTVSRNNAANKMYLELTRLEPEDTALYYCARNQKGLNKGQGTQVTVSS")
1
>>> classification("Q65C7 (VHH, not shown: small tags and cut ends, Family 1; purified from E. coli) VHH: EVQLVESGGGLVQPGRSLRLSCTASGFDFSSHWMYWVRQAPGKGLEWVSEINTNGLITKYADFVKGRFTVSRDNAANTLYLEITRLEPEDTALYYCARNQKGLNKGQGTQVTVSS")
0
>>> classification("Q65F6 (VHH, not shown: small tags and cut ends, Family 2; purified from E. coli) VHH: EVQLVESGGGLVQPGGSLRLSCTASGFDFGIHWMYWVRQAPGKELEWVAEINTNGLITLYSDSVRGRFTASRDNANNALFLQMNDLKFEDTAVYYCAKSRNGAAKGQGTQVTVSS")
0

Now let's try a different one.
Req: Lab log: compare recorded Inhibition of human TNF-induced L929 cell cytotoxicity EC50 with 0.1 nM; is it strictly lower for Q65A3 (VHH, not shown: small tags and cut ends, Family 2; purified from E. coli) VHH: EVQLVESGGGLVQPGGSLRPSCTTSGLDFGIHWMYWFRQAPGKELEWVAEINTNALITKYADSVKGRFTISRDNAKNTLFLQMNDLKSEDTAVYYCSNTQNGAAKGQGVQVTVSS ?
Resp: 0
